This section presents molecules with their documented composite z-score values.
- Tested on: Inhibin beta A chain (activin A)
- run-description: INHBA (activin A) binders on microarrays, primary screen, biochemical, small-molecule microarray, 635 nm fluorescence scan (AID 1107);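 also: mouse activin A protein probed at 4.33 µg/mL on printed slides; score merges bound-protein fluorescence near 667 nm with spot signal-to-noise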
- test-settings: small-molecule microarray binding, higher = more signal

- molecule: "CCCC=C(CCC)[C@@H](NS(=O)(=O)c1ccc(-c2ccccc2)cc1)c1ccc(C(=O)OC)cc1"
  composite z-score: 0.573
- molecule: "C[C@]1(C(=O)NCc2ccccc2)c2ccccc2C(=O)N(Cc2cc(C(F)(F)F)cc(C(F)(F)F)c2)[C@H]1c1ccc(CO)cc1"
  composite z-score: 0.856
- molecule: "CC(C)N1CC=CC23O[C@@H]4/C=C\\CCCOC(=O)C4[C@H]2C(=O)N(CCO)[C@@H]3C1=O (some centres undefined)"
  composite z-score: 1.45
- molecule: "O=C(NCC(F)(F)F)[C@@H]1c2ccccc2C(=O)N(Cc2ccccc2Cl)[C@H]1c1ccc(CO)cc1"
  composite z-score: -0.0121
- molecule: "CO[C@H]1O[C@H](CO)[C@@H](OC(=O)Nc2ccccc2)[C@H](OC(=O)Nc2ccc3c(c2)OCO3)[C@@H]1OC(=O)Nc1ccc2c(c1)OCO2"
  composite z-score: 0.794
- molecule: "COc1ccc([Si](C)(C)[C@@H]2[C@@H](CCO)O[C@]3(C(=O)N(Cc4ccccc4)c4ccccc43)[C@H]2C)cc1"
  composite z-score: -0.0249
- molecule: "CCOC(=O)C1=CC[C@@H](c2ccccc2)N(S(=O)(=O)c2ccc(C)cc2)[C@H]1C"
  composite z-score: 0.258
- molecule: "N#Cc1ccc(NN2C(C(O)c3ccc(I)cc3)C=CC3C(=O)N(c4ccccc4)C(=O)C32)cc1 (centres undefined)"
  composite z-score: 0.462
- molecule: "C[N+](C)(C)CCCC[C@@H]1NC(=O)[C@H]2C[C@@H](C(=O)NCc3ccc(F)cc3)[C@@H](c3cccc(OCCO)c3)N2C1=O"
  composite z-score: -0.7
- molecule: "COCCOC(=O)N1C(=O)[C@@]2(c3cc(C#CC4=CCCCC4)ccc31)[C@H](C(=O)NC[C@H](O)c1ccccc1)[C@H]1C(=O)O[C@H](c3ccccc3)[C@H](c3ccccc3)N1[C@@H]2c1ccc(OCCO)cc1"
  composite z-score: 0.49
- molecule: "CCCNC(=O)[C@@H]1c2ccccc2C(=O)N(Cc2cc(F)cc(C(F)(F)F)c2)[C@H]1c1ccc(CO)cc1"
  composite z-score: 1.05
- molecule: "COC(=O)C1=CC(c2ccc(CO)cc2)=CC(c2cccs2)N(Cc2cccc(OC(F)(F)F)c2)C=C1C(=O)OC (centres undefined)"
  composite z-score: 1.09
- molecule: "CO[C@H]1COC(=O)CC=C[C@H](C)COC(=O)[C@@H](OCc2ccccc2)C=C[C@@H]1C"
  composite z-score: 0.924
- molecule: "C=CCNC(=O)[C@H]1[C@@H]2C(=O)O[C@@H](c3ccccc3)[C@@H](c3ccccc3)N2[C@@H](c2ccccc2OCCO)[C@]12C(=O)N(C(=O)OCCOC)c1ccc(C#CCC(C(=O)OC)C(=O)OC)cc12"
  composite z-score: 0.641

* * *

Reported composite z-score is given for each of the following compounds.
- target-of-assay: Alpha-bungarotoxin (Bungarus multicinctus) (UniProt P60615)
- Sequence (P60615 whole entry, looked up): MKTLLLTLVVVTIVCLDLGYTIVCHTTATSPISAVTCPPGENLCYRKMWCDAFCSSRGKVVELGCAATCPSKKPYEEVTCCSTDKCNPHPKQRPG
- run-description: alpha-bungarotoxin binders on microarray, profiling panel, artefact control for SMM control protein annotation, biochemical, small-molecule microarray, Alexa647 label, 635/667 nm fluorescence (AID 1117)
- test-settings: alpha-BTX-A647 binding fluorescence, higher = more signal

- compound: "COC(=O)[C@@]1(Cc2ccc(OC)cc2)[C@H]2c3cc(C(=O)N(C)C)n(CCc4ccc(OC)c(Br)c4)c3C[C@H]2CN1C(=O)c1ccccc1"
  target-of-assay: "Alpha-bungarotoxin (Bungarus multicinctus) (UniProt P60615)"
  composite z-score: 1.98
- compound: "COc1cccc([C@@H]2[C@@H](C)CC[C@H]3C(=O)N(C)[C@@H](C(C)C)C(=O)N23)c1"
  target-of-assay: "Alpha-bungarotoxin (Bungarus multicinctus) (UniProt P60615)"
  composite z-score: 0.0641
- compound: "CCc1cccc(NC(=O)O[C@H]2[C@H](OC(=O)Nc3ccccc3)[C@@H](OC(=O)Nc3ccccc3)[C@@H](OC)O[C@@H]2CO)c1"
  target-of-assay: "Alpha-bungarotoxin (Bungarus multicinctus) (UniProt P60615)"
  composite z-score: 1.2
- compound: "O=C1NC(=O)C2C1C=CC(C(O)C=Cc1ccc([N+](=O)[O-])cc1)N2Nc1ccccn1 (stereo not given)"
  target-of-assay: "Alpha-bungarotoxin (Bungarus multicinctus) (UniProt P60615)"
  composite z-score: 0.224
- compound: "O=C(CS)NCCCCCNC(=O)[C@H]1C[C@H]2C(=O)N3CCC[C@H]3C(=O)N2[C@H]1c1ccc(O)cc1"
  target-of-assay: "Alpha-bungarotoxin (Bungarus multicinctus) (UniProt P60615)"
  composite z-score: -1.3
- compound: "CO[C@H]1O[C@H](CO)[C@@H](OC(=O)CCc2ccccc2)[C@@H]2OC(=O)[C@H](Cc3cccc(Br)c3)C/C=C/C[C@@H](Cc3cccc(Br)c3)C(=O)O[C@@H]12"
  target-of-assay: "Alpha-bungarotoxin (Bungarus multicinctus) (UniProt P60615)"
  composite z-score: 2.14
- compound: "COCCOC(=O)N1C(=O)[C@@]2(c3cc(C#CCC(C(=O)OC)C(=O)OC)ccc31)[C@H](C(=O)N1CCN(c3ncccn3)CC1)[C@H]1C(=O)O[C@H](c3ccccc3)[C@H](c3ccccc3)N1[C@@H]2c1ccc(O)cc1"
  target-of-assay: "Alpha-bungarotoxin (Bungarus multicinctus) (UniProt P60615)"
  composite z-score: 1.71
- compound: "CN(C)C(=O)[C@@]1(Cc2ccccc2N=[N+]=[N-])N=C(c2ccc(OCCCO)cc2)O[C@H]1c1ccccc1CN=[N+]=[N-]"
  target-of-assay: "Alpha-bungarotoxin (Bungarus multicinctus) (UniProt P60615)"
  composite z-score: 2.96
- compound: "C=CC[C@]1(C(N)=O)N=C(c2ccc(OCCCO)cc2)O[C@H]1c1ccccc1CN=[N+]=[N-]"
  target-of-assay: "Alpha-bungarotoxin (Bungarus multicinctus) (UniProt P60615)"
  composite z-score: 1.03
- compound: "CCN1C(C)=C(C(=O)OC)[C@@H](c2ccccc2)N2C(=O)[C@](O)(C(=O)OC)[C@@H](c3ccccc3)C(C(C)=O)=C12"
  target-of-assay: "Alpha-bungarotoxin (Bungarus multicinctus) (UniProt P60615)"
  composite z-score: -0.576
- compound: "COC(=O)[C@@]1(Cc2ccccc2N=[N+]=[N-])N=C(c2ccc(OCCCO)cc2)O[C@H]1c1ccccc1CN=[N+]=[N-]"
  target-of-assay: "Alpha-bungarotoxin (Bungarus multicinctus) (UniProt P60615)"
  composite z-score: 1.28
- compound: "Cc1ccc(N2C(=O)c3ccccc3[C@](C)(C(=O)NCC(C)C)[C@@H]2c2ccc(CO)cc2)nc1"
  target-of-assay: "Alpha-bungarotoxin (Bungarus multicinctus) (UniProt P60615)"
  composite z-score: -0.809
- compound: "C=CC[C@]1(C(=O)N2CCCCC2)N=C(c2ccc(OCCCO)cc2)O[C@H]1c1ccccc1N=[N+]=[N-]"
  target-of-assay: "Alpha-bungarotoxin (Bungarus multicinctus) (UniProt P60615)"
  composite z-score: 2.28
- compound: "O=C(N1CCCCC1)[C@@]1(CCS(=O)(=O)c2ccccc2)N=C(c2ccc(OCCCO)cc2)O[C@H]1c1ccccc1"
  target-of-assay: "Alpha-bungarotoxin (Bungarus multicinctus) (UniProt P60615)"
  composite z-score: -0.0166
- compound: "COc1ccc(NN2C(C(O)c3cc(OC)c(OC)c(OC)c3)C=CC3C(=O)N(C4CCCCC4)C(=O)C32)cc1 (stereo not given)"
  target-of-assay: "Alpha-bungarotoxin (Bungarus multicinctus) (UniProt P60615)"
  composite z-score: 1.96
